# systemUnderTest: hCA II (Homo sapiens)
# Construct: gene CA2; recombinant, obtained in-house
# protocol: stopped-flow CO2 hydration assay
# Type: biochemical
# testConditions: read-out: KI (nM)* / CA II (converted)
parameter: Ki (nM)

compound="O=C1CN(N=Cc2cnc[nH]2)C(=O)N1 [compound 17]" quantitativereadout=12400
compound="O=C1CN(/N=C/C=C/c2ccc([N+](=O)[O-])o2)C(=O)N1 [Furagin]" quantitativereadout=9600
compound="CC(C)=CC=NN1CC(=O)NC1=O [compound 10]" quantitativereadout=16500
compound="O=C1CN(N=Cc2ccc([N+](=O)[O-])cc2)C(=O)N1 [compound 4]" quantitativereadout=11100
compound="O=C1CN(N=CCCCC=NN2CC(=O)NC2=O)C(=O)N1 [compound 6]" quantitativereadout=4000
compound="O=C1CN(N=Cc2ccccn2)C(=O)N1 [compound 14]" quantitativereadout=4200
compound="O=C1CN(N=Cc2ccoc2)C(=O)N1 [compound 7]" quantitativereadout=710
compound="O=C1CN(N=Cc2ccc(O)cc2O)C(=O)N1 [compound 12]" quantitativereadout=59900
compound="COC(=O)c1ccc(C=NN2CC(=O)NC2=O)cc1 [compound 5]" quantitativereadout=8300
compound="CCOC(=O)/C=C/C=NN1CC(=O)NC1=O [compound 9]" quantitativereadout=23600
compound="O=C1CN(N=Cc2cccnc2)C(=O)N1 [compound 15]" quantitativereadout=620
compound="O=C1CN(N=Cc2ccc(OCc3ccccc3)cc2)C(=O)N1 [compound 8]" quantitativereadout=540
compound="COc1ccc(C=NN2CC(=O)NC2=O)cc1 [compound 3]" quantitativereadout=6400
compound="O=C1CN(N=Cc2ccc(B(O)O)cc2)C(=O)N1 [compound 13]" quantitativereadout=14200
compound="COc1ccc(/C=C/C=NN2CC(=O)NC2=O)cc1 [compound 11]" quantitativereadout=3100
compound="O=C1CN(N=Cc2ccncc2)C(=O)N1 [compound 16]" quantitativereadout=3300
compound="O=C1CN(N=Cc2ccccc2)C(=O)N1 [compound 2]" quantitativereadout=900

---

Let's look at some compounds and their measured log10 Ki.
# systemUnderTest: hCA IX (Homo sapiens, UniProt Q16790)
# Construct: gene CA9; recombinant, obtained in-house
# protocol: stopped-flow CO2 hydration assay
# Format: biochemical
# testConditions: read-out: KI (nM)* / CA IX
parameter: log10 Ki (log10 of the value in nM)

compound="CC(C)=CC=NN1CC(=O)NC1=O [compound 10]" quantitativereadout=3.46
compound="O=C1CN(N=Cc2ccccn2)C(=O)N1 [compound 14]" quantitativereadout=3.65
compound="O=C1CN(N=Cc2cccnc2)C(=O)N1 [compound 15]" quantitativereadout=3.36
compound="COC(=O)c1ccc(C=NN2CC(=O)NC2=O)cc1 [compound 5]" quantitativereadout=3.69
compound="COc1ccc(/C=C/C=NN2CC(=O)NC2=O)cc1 [compound 11]" quantitativereadout=2.60
compound="O=C1CN(N=Cc2cnc[nH]2)C(=O)N1 [compound 17]" quantitativereadout=2.75
compound="O=C1CN(N=Cc2ccc([N+](=O)[O-])cc2)C(=O)N1 [compound 4]" quantitativereadout=3.87
compound="O=C1CN(N=CCCCC=NN2CC(=O)NC2=O)C(=O)N1 [compound 6]" quantitativereadout=3.04
compound="O=C1CN(/N=C/C=C/c2ccc([N+](=O)[O-])o2)C(=O)N1 [Furagin]" quantitativereadout=2.41
compound="O=C1CN(N=Cc2ccncc2)C(=O)N1 [compound 16]" quantitativereadout=3.20
